Target: T1, AtTIFY1 (Arabidopsis thaliana, UniProt Q9LRH6 1-309)
T1 sequence: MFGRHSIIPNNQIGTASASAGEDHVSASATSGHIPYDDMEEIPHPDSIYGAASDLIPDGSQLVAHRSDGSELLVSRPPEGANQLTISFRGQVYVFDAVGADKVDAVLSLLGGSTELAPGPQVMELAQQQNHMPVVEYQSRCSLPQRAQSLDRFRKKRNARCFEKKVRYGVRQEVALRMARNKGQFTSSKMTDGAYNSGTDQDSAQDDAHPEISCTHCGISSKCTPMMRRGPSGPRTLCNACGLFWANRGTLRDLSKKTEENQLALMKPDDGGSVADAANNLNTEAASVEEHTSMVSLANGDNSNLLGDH
Assay: DPI-ELISA; DPI-ELISA, streptavidin 384-well plate, 1-2 pmol biotinylated dsDNA per well, crude native E. coli extract, anti-His detection; buffer as in Brand et al. [46],; high values mean tight binding
Conditions: tags: C-terminal His (pET-DEST42); label: 5' biotin on forward strand
binding signal: recorded values
EXPERIMENTAL_ENDPOINT: binding signal

INSERT INTO assay_data (binder, value_observed) VALUES
  ('300 (dsDNA) DNA 1: AAAAAACTCGCGCTTGCATCTGTGCGAAAA DNA 2: TTTTCGCACAGATGCAAGCGCGAGTTTTTT', '1.45 relative normalized absorbance'),
  ('234 (dsDNA) DNA 1: AAAAAAGGTCTGGACGATCACCGGGAAAAA DNA 2: TTTTTCCCGGTGATCGTCCAGACCTTTTTT', '1.7 relative normalized absorbance'),
  ('290 (dsDNA) DNA 1: AAAAAATGTCTAGACTCGGACATTCGAAAA DNA 2: TTTTCGAATGTCCGAGTCTAGACATTTTTT', '1.52 relative normalized absorbance'),
  ('314 (dsDNA) DNA 1: AAAAAATTGGCACACATGATCTCGGGAAAA DNA 2: TTTTCCCGAGATCATGTGTGCCAATTTTTT', '1.5 relative normalized absorbance'),
  ('334 (dsDNA) DNA 1: AAAAAATTCCGGCTTGACGCTGCATAAAAA DNA 2: TTTTTATGCAGCGTCAAGCCGGAATTTTTT', '1.43 relative normalized absorbance'),
  ('201 (dsDNA) DNA 1: AAAAAAGATCTAGGCCTTGGGACTCAAAAA DNA 2: TTTTTGAGTCCCAAGGCCTAGATCTTTTTT', '1.81 relative normalized absorbance'),
  ('15 (dsDNA) DNA 1: AAAAAAATCCGATCGATGCATATATAAAA DNA 2: TTTTATATATGCATCGATCGGATTTTTTT', '1.63 relative normalized absorbance'),
  ('238 (dsDNA) DNA 1: AAAAAATCGGGGATCCGGGCGGTTGCAAAA DNA 2: TTTTGCAACCGCCCGGATCCCCGATTTTTT', '1.69 relative normalized absorbance'),
  ('305 (dsDNA) DNA 1: AAAAAACGCTTTCAGTTTTGATCTTAAAAA DNA 2: TTTTTAAGATCAAAACTGAAAGCGTTTTTT', '1.55 relative normalized absorbance'),
  ('227 (dsDNA) DNA 1: AAAAAAGGCTCCGGCCCCCAATCGCAAAAA DNA 2: TTTTTGCGATTGGGGGCCGGAGCCTTTTTT', '1.44 relative normalized absorbance'),
  ('32 (dsDNA) DNA 1: AAAAAACCTACGATGGTTCTGATCTTAAAA DNA 2: TTTTAAGATCAGAACCATCGTAGGTTTTTT', '1.8 relative normalized absorbance'),
  ('204 (dsDNA) DNA 1: AAAAAAGGAAGTACTGACGATCTGGAAAAA DNA 2: TTTTTCCAGATCGTCAGTACTTCCTTTTTT', '1.52 relative normalized absorbance'),
  ('282 (dsDNA) DNA 1: AAAAAACAGGCCGATTCCGATCCCGGAAAA DNA 2: TTTTCCGGGATCGGAATCGGCCTGTTTTTT', '1.83 relative normalized absorbance'),
  ('160 (dsDNA) DNA 1: AAAAAACGGTCGCGATCGTTAATGATAAAA DNA 2: TTTTATCATTAACGATCGCGACCGTTTTTT', '1.47 relative normalized absorbance'),
  ('130 (dsDNA) DNA 1: AAAAAACGCAACTCCGGATGTGGGGTAAAA DNA 2: TTTTACCCCACATCCGGAGTTGCGTTTTTT', '1.54 relative normalized absorbance');
